Test details: UV absorption properties (λmax, molar extinction coefficient ε, efficiency E 1%, 1 cm)
Format: physicochemical
Test settings: Table 13B; values in order of the λmax values; in M-1 cm-1
Assay metric: ε

Previously resolved entries follow.
{"columns": ["Compound", "ε"],
 "data": [
  ["COc1cc(/C=C/C(=O)C2=CN(C(C)(C)C)CCC2(C)C)c(OC)cc1/C=C/C(=O)C1=CN(C(C)(C)C)CCC1(C)C", 32220],
  ["CCOC(=O)c1cc(/C=C/C(=O)C2=CN(C(C)(C)C)CCC2(C)C)c(C(=O)OCC)cc1/C=C/C(=O)C1=CN(C(C)(C)C)CCC1(C)C", 23457]
]}

1. CC(C)CN1C=C(C(=O)C(C)(C)C)C(C)(C)CC1
2. CCCCC(CC)CN(c1ccc(C(=O)C2=CN(C(C)(C)C)CCC2(C)C)cc1)c1ccc(C(=O)C2=CN(C(C)(C)C)CCC2(C)C)cc1.Cl (stereo not shown)
Larger number for ε: 1 , or 2 ? Your answer should be the label attached to the chosen record.
2
(2: 45910, 1: 28554)

====

Test details: Critical wavelength (λcrit), approximate in-house measurement
Type: physicochemical
Test settings: Table 3
Assay metric: λcrit (nm)

{"columns": ["Compound", "λcrit [nm]"],
 "data": [
  ["Cc1ccc(NC(=O)C2=CN(C(C)(C)C)CCC2(C)C)cc1NC(=O)C1=CN(C(C)(C)C)CCC1(C)C [drawing 62]", 329],
  ["CC1(C)CCN(C(C)(C)C)C=C1C(=O)Nc1ccccc1 [drawing 57]", 326],
  ["CN(C(=O)C1=CN(C(C)(C)C)CCC1(C)C)c1ccccc1 [drawing 58]", 337],
  ["CCCCNC(=O)C1=CN(C(C)(C)C)CCC1(C)C [drawing 61]", 312]
]}

====

Test details: UV absorption properties (λmax, molar extinction coefficient ε, efficiency E 1%, 1 cm)
Type: physicochemical
Assay metric: UV λmax (nm)

{"columns": ["Chemical string", "UV λmax (nm)"],
 "data": [
  ["CN(C)c1ccc(N2C=C(C(=O)C(F)(F)F)C(C)(C)CC2)cc1", 354],
  ["C=C(C)C(=O)C1=CN(CC(C)C)CCC1(C)C", 310],
  ["CCC(=O)C1=CN(c2cccc3ccccc23)CCC1(C)C", 321],
  ["C=C/C=C/CC(=O)C1=CN(CC(C)C)CCC1(C)C", 311],
  ["COc1ccc(N2C=C(C(=O)c3ccc(F)cc3)C(C)(C)CC2)cc1", 341],
  ["Cc1ccc(N2C=C(C(=O)Nc3ccc(C)c(NC(=O)C4=CN(C(C)(C)C)CCC4(C)C)c3)C(C)(C)CC2)cc1", 314]
]}

====

Test details: UV absorption properties (λmax, molar extinction coefficient ε, efficiency E 1%, 1 cm)
Assay type: physicochemical
Test settings: values in order of the λmax values
Assay metric: ε (molar extinction coefficient) (M⁻¹ cm⁻¹)

{"columns": ["Compound", "ε (molar extinction coefficient) / M⁻¹ cm⁻¹"],
 "data": [
  ["CC(C)=CC(=O)C1=CN(CC(C)C)CCC1(C)C [Compound 26]", 19000],
  ["COc1ccc(N2C=C(C(=O)C(F)(F)F)C(C)(C)CC2)cc1 [Compound 195]", 24235],
  ["CCCCNC(=O)C1=CN(C(C)(C)C)CCC1(C)C [Compound 183]", 22531]
]}

====

Test details: UV absorption properties (λmax, molar extinction coefficient ε, efficiency E 1%, 1 cm)
Type: physicochemical
Assay metric: UV λmax (nm)

{"columns": ["Chemical string", "UV λmax [nm]"],
 "data": [
  ["CN(C)c1ccc(C(=O)C2=CN(C(C)(C)C)CCC2(C)C)cc1", 333],
  ["CCC(=O)C1=CN(c2ccc(C(C)(C)C)cc2)CCC1(C)C", 329],
  ["Cc1ccc(N2C=C(C(=O)CCCCCCCCC(=O)C3=CN(c4ccc(C)cc4)CCC3(C)C)C(C)(C)CC2)cc1", 328],
  ["CC1(C)CCN(c2ccc(C(C)(C)C)cc2)C=C1C(=O)Nc1ccc(NC(=O)C2=CN(c3ccc(C(C)(C)C)cc3)CCC2(C)C)cc1", 331],
  ["CC(C)CN1C=C(C(=O)c2ccc(C(=O)C3=CN(CC(C)C)CCC3(C)C)cc2)C(C)(C)CC1", 320],
  ["Cc1cc(N2C=CC(C)(C)C=C2)n(C)n1", 253],
  ["CC(C)CN1C=C(C(=O)c2ccccc2)C(C)(C)CC1", 316]
]}

Value source: patent US10519111B2
